Every entry's value here was drawn from ChEMBL document CHEMBL1139295.

Tested on: MCF7
Assay: Cytotoxicity against human MCF7 cells
Format: functional, cell-based
One threshold, 30 µg/mL, splits the recorded IC50 values: lower ones are yes (1), equal or higher ones are no (0).

C=C1C[C@@H](O)[C@H]2C(C)(C)CCC[C@]2(C)[C@H]1/C=C/c1ccoc1 | yes (1)
O=c1c(O)c(-c2ccccc2)oc2cc(O)cc(O)c12 | no (0)
CC1=C(O)C(=O)[C@H]2C(C)(C)CCC[C@]2(C)[C@H]1/C=C/C1=CC(=O)OC1 | yes (1)
COc1cc(O)c2c(=O)cc(-c3ccccc3)oc2c1 | no (0)
C=C1CC(=O)[C@H]2C(C)(C)CCC[C@]2(C)[C@H]1C/C=C1\CC(O)OC1=O (some centres not stated) | no (0)
C=C1[C@@H](O)C[C@H]2C(C)(C)CCC[C@]2(C)[C@H]1C/C=C1/CCOC1=O | no (0)
